Conditions: buffer; pH 7.4; 200.0 µM
# maps each entry to its solubility kinetic

Some molecules with recorded solubility kinetic:
# molecule, result
data = [
    ("O=C(c1cccc(F)c1)N1CCCC(C(=O)N2CCCCC2)C1 (stereo unspecified)", "> 47.8 µg/mL"),
    ("O=C(Nc1ccc(Cl)c(Cl)c1)Nc1ccccn1", "< 0.2 µg/mL"),
    ("Cc1ccc2c(C)c(C(=O)NCCN3CCOC3=O)oc2c1C", "> 47.5 µg/mL"),
    ("Cc1ccc(OCC(=O)NCCNC(=O)c2ccncc2)cc1C", "> 49.1 µg/mL"),
    ("O=C(Cc1c(F)cccc1Cl)N1CCOCC1", "> 38.7 µg/mL"),
]

Shifting focus to the molecule that follows.
Req: Which solubility kinetic value belongs to CSc1nc(N)cc(=O)[nH]1 ?
Resp: > 23.6 µg/mL

###

Parameter: solubility kinetic. Scope: all listed entries.
Conditions: buffer; pH 7.4; 200.0 µM
Field format: number, assumed µg/mL, no unit text.

Use the examples below as a reference point.
# compound, numeric_value
records = [
    ("Cc1ccc(-c2ncns2)cc1", 0.5),
    ("O=c1c2c3c(sc2nc(NCCO)n1-c1ccccc1)CCCC3", 6.8),
    ("Cc1ccc(C)c(OCCn2ccnc2)c1", 24.7),
    ("Cc1cc(C#N)c(SCC(N)=O)nc1-c1ccc(F)cc1", 5.6),
    ("OC(c1nc2ccccc2[nH]1)C(O)C(O)C(O)c1nc2ccccc2[nH]1 (stereo unspecified)", 1.4),
    ("CCOc1ccc(C2/C(=C(/O)c3ccc4c(c3)CC(C)O4)C(=O)C(=O)N2CC2CCCO2)cc1 (stereo unspecified)", 61.8),
]

Req: What does the record list as solubility kinetic for N#Cc1nc(-c2ccco2)oc1NCc1ccccc1Cl ?
Resp: 1.1

###

Details: buffer; pH 7.4; 200.0 µM
attribute_measured: solubility kinetic

Examples with answers:
# smiles, solubility kinetic
measured = [
    ("CS(=O)(=O)N1CCN=C1SCc1ccc(F)cc1", "> 43.3 µg/mL"),
    ("Cc1cc(C)c(-c2c(O)c3ccccc3n(C)c2=O)c(C)c1", "> 44 µg/mL"),
    ("Cc1cccc(C)c1NC(=O)CNCC(=O)N(C)C", "> 39.5 µg/mL"),
]

Switching to the query record.
Req: // lookup solubility kinetic for O=C(COc1ccccc1)NCC(=O)N1CCCCCC1
Resp: > 43.6 µg/mL

###

Conditions: buffer; pH 7.4; 200.0 µM
Below is a list of entries, each paired with its recorded solubility kinetic value.
Please respond with the number in µg/mL and leave the unit unwritten.

Observe how each entry below is paired with its result.
# compound, solubility kinetic [µg/mL]
rows = [
    ("Cc1ccc(-n2c(-c3ccccc3)c[nH]c2=S)cc1", 0.6),
    ("Cn1cc(-c2cccc(C(F)(F)F)c2)cc(C#N)c1=O", 7.6),
    ("COc1ccc(C(=O)NC(C)CCc2ccccc2)cc1 (stereo unspecified)", 41.9),
    ("Cc1ccc(NC(=O)C(C)N2C(=O)c3ccccc3C2=O)c(C)c1 (stereo unspecified)", 29.7),
    ("Cc1ccc(S(=O)(=O)N2CCCCC2)cc1NC(=O)CN1C(=O)c2ccccc2S1(=O)=O", 20.7),
    ("Cc1ccc(CCC(=O)Nc2ccc(Br)cc2)o1", 4.2),
    ("CC(=O)Nc1ccc(OCCC[n+]2cccc(C(=O)[O-])c2)cc1", 39.6),
]

As a next step, examine the compound that follows.
Req: Name the recorded solubility kinetic for COc1ccc(C2=COc3ccccc3C(=O)N2)cc1 .
Resp: 11.4

###

Conditions: buffer; pH 7.4; 200.0 µM
Consider the following compounds and their measured solubility kinetic readings.

Here are 4 compounds together with their reported answers.
# compound, result
rows = [
    ("CC(C)c1nc2cc(C(=O)NC(C)c3cnn(C)c3)ccc2o1 (stereo unspecified)", "> 46.9 µg/mL"),
    ("O=C1OCc2ccc(NS(=O)(=O)c3ccc(C(F)(F)F)cc3)cc21", "> 53.6 µg/mL"),
    ("CNC(=O)Nc1ccc2nc(C)oc2c1", "> 30.8 µg/mL"),
    ("OCCCNc1c2ccccc2nc2ccccc12", "> 37.8 µg/mL"),
]

Req: What does the data say about its solubility kinetic? Entry: O=C(O)c1ccccc1NS(=O)(=O)c1ccc2ccccc2c1
Resp: > 49.1 µg/mL

Req: Which solubility kinetic reading was recorded for the compound CC(=O)N1CCN(c2ccc(S(C)(=O)=O)cc2[N+](=O)[O-])CC1 ?
Resp: > 49.1 µg/mL

Req: For the compound CC1CC(C)CN(C(=O)COC(=O)CN2C(=O)c3ccccc3C2=O)C1 (stereo unspecified) , what solubility kinetic is on record?
Resp: > 53.8 µg/mL

Req: Dear colleague, I am looking for the recorded solubility kinetic of the following compound: CNc1nc2cccnc2s1
Resp: > 24.8 µg/mL

Req: Need solubility kinetic, item Cc1ccc(C(=O)NCC(=O)OC2CCCCC2=O)cc1C (stereo unspecified)
Resp: > 45.5 µg/mL

Req: Reported solubility kinetic, compound Cc1ccc(C)c(NC(=O)CCC(=O)NN=C2CCCC2)c1 : ____
Resp: > 45.2 µg/mL

Req: # solubility kinetic lookup, item CCOC(=O)c1cc(C#N)c(Nc2ccccc2OC)nc1C(F)(F)F
Resp: < 0.3 µg/mL

###

Conditions: buffer; pH 7.4; 200.0 µM
Items are presented alongside their recorded solubility kinetic.

# compound, attribute_measured, result
data = [
    ("CCN(Cc1ccccc1)S(=O)(=O)c1ccc(OC)c2ncccc12", "solubility kinetic", "> 53.5 µg/mL"),
]

Req: Entry COc1ccc(N=C2NC(=O)C(CO)(CO)S2)cc1 has what solubility kinetic?
Resp: > 42.3 µg/mL

Req: Look up solubility kinetic: N#Cc1ccccc1S(=O)(=O)Nc1ccc2c(c1)OCCO2
Resp: > 47.4 µg/mL

Req: # get_value(readout='solubility kinetic', item= COc1ccc(C2=NOC(C(=O)Nc3cc(C)on3)C2)cc1OC (configuration not stated) )
Resp: > 49.7 µg/mL

Req: Which solubility kinetic reading was recorded for the compound CCOC(=O)c1cn2c(C)cccc2n1 ?
Resp: > 30.6 µg/mL

Req: Please report the recorded solubility kinetic for Cc1c(-c2csc(N)n2)cnn1C .
Resp: > 29.1 µg/mL

Req: solubility kinetic for CNc1nc2c(Cl)cc(Cl)cc2s1 ?
Resp: < 0.2 µg/mL

###

Details: buffer; pH 7.4; 200.0 µM
attribute_measured: solubility kinetic

Req: Entry under review: CN(C)C(=O)Oc1ccc2c(c1)O/C(=C\c1cccc([N+](=O)[O-])c1)C2=O . Reported solubility kinetic?
Resp: < 0.4 µg/mL

Req: Bench note: what solubility kinetic did CCC1(C)NC(=O)N(CC(=O)Nc2cc(C)on2)C1=O (stereo not given) show?
Resp: > 42 µg/mL

Req: What solubility kinetic value was documented for this compound, CN(C)c1ccc(N=Cc2cccn2C)cc1 ?
Resp: > 34.1 µg/mL

Req: For the compound shown here, COC(=O)[C@@H]1CCCN1Cc1nc(Cc2ccc(OC)c(OC)c2)no1 , give the reported solubility kinetic.
Resp: > 54.2 µg/mL

Req: Reported solubility kinetic for O=C(O)/C=C/C(=O)NCC1CCC(CNC(=O)/C=C/C(=O)O)CC1 (stereo not given) : what is it?
Resp: > 50.8 µg/mL

Req: Dear colleague, I am looking for the recorded solubility kinetic of the following compound: CC(C)(C)C(=O)/C=c1\[nH]c(=O)/c(=C\c2ccccc2F)s1
Resp: < 0.7 µg/mL

Req: Which solubility kinetic is listed for Cc1noc(C)c1S(=O)(=O)Nc1ccccc1N1CCOCC1 ?
Resp: > 50.6 µg/mL

Req: Which measured solubility kinetic value corresponds to CS(=O)(=O)N(CC(=O)N1CCOCC1)c1cccc([N+](=O)[O-])c1 ?
Resp: > 51.5 µg/mL

Req: // query solubility kinetic value for entry CCn1c(C)cc(O)c(C(=O)Nc2cccc(Cl)c2)c1=O
Resp: < 0.3 µg/mL

Req: Need solubility kinetic of CC(=O)C1=NOC2C(=O)N(c3ccc(Cl)cc3)C(=O)C12 (stereo not given) , thanks.
Resp: > 43.9 µg/mL

###

# solubility kinetic values compiled below
Conditions: buffer; pH 7.4; 200.0 µM

# compound, solubility kinetic
rows = [
    ("O=C(Nc1cccc(N2C(=O)C=CC2=O)c1)c1cccs1", "> 44.7 µg/mL"),
    ("CC1CC(C)CN(C(=O)COC(=O)c2nccnc2N)C1 (configuration not stated)", "> 43.9 µg/mL"),
    ("Cc1ccc2nc(C)c3c(c2c1)N(c1ccccc1)CC3", "> 41.2 µg/mL"),
    ("O=C(C[n+]1cccc(O)c1)NCc1ccc(Cl)cc1.[Cl-]", "> 47 µg/mL"),
    ("COc1ccc(CCNC(=O)COc2ccccc2[N+](=O)[O-])cc1OC", "> 54.1 µg/mL"),
    ("Cc1cccc(OCC(=O)Nc2ccncc2)c1", "> 36.3 µg/mL"),
    ("O=C(COC(=O)c1ccc[n+]([O-])c1)Nc1ccc([N+](=O)[O-])cc1C(F)(F)F", "> 57.8 µg/mL"),
    ("COc1cccc(CN2CCCCC2C(=O)O)c1 (configuration not stated)", "> 37.4 µg/mL"),
]

Req: For the compound shown here, Cc1ccc(C(=O)Nc2scc(-c3ccccc3)c2C(=O)O)cc1 , give the reported solubility kinetic.
Resp: > 50.6 µg/mL

Req: Which solubility kinetic is reported for this compound? O=C(O)c1cccc(CN2C(=O)c3ccccc3C2=O)c1
Resp: > 42.2 µg/mL

Req: I am curious: what solubility kinetic value has been reported for Cc1c(Cl)cccc1NC(=O)CCN1CCC(C(N)=O)CC1 ?
Resp: > 48.6 µg/mL

Req: What measured solubility kinetic goes with CC(C)C(NC(=O)C(C)N1C(=O)c2ccccc2C1=O)c1ccccc1 (configuration not stated) ?
Resp: > 52.6 µg/mL
